- tgt: purified E. coli cyt bo3 oxidase (Escherichia coli, UniProt P0ABI8)
- Construct: made in house; host or cells: E. coli strain GO195 with plasmid pIRHisA
- Sequence (P0ABJ1 25-315): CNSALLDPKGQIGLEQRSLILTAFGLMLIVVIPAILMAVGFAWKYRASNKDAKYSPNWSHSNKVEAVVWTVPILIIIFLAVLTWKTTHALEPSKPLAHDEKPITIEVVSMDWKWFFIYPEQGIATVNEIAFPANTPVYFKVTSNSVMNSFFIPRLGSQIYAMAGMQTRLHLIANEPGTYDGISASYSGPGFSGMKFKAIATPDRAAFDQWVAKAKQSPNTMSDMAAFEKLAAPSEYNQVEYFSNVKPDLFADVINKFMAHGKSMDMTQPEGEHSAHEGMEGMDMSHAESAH
- Sequence (P0ABJ3 whole entry, further chain): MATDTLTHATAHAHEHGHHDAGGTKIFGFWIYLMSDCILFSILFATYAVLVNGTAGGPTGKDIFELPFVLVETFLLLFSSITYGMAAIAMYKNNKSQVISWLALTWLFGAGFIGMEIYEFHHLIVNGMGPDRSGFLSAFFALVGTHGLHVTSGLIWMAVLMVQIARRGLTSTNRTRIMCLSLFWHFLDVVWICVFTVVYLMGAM
- Sequence (P0ABI8 whole entry): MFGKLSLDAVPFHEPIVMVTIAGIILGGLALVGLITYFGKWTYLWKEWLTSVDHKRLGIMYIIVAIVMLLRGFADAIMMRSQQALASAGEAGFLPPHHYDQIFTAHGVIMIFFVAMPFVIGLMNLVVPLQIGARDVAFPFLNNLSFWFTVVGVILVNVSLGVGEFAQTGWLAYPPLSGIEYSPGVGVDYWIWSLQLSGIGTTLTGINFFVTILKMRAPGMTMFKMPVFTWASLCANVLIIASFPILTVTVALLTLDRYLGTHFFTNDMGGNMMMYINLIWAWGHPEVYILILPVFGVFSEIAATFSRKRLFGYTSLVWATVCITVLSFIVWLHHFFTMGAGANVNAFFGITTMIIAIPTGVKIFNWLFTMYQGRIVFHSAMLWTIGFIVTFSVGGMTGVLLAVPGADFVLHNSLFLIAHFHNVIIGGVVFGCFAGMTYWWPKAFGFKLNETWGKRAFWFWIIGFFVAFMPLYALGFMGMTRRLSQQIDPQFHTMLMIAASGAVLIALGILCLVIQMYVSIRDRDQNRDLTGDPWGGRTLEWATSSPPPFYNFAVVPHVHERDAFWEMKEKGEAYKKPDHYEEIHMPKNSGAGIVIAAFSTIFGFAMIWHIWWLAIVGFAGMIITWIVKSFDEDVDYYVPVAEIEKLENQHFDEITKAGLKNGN
- Sequence (P0ABJ6 whole entry, further chain): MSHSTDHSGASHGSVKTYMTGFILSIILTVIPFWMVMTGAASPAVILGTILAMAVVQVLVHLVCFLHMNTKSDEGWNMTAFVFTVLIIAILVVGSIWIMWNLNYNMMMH
- procedure summary: biochemical
- condition: inhibitor 250 µM, 200 μM ubiquinone-1, 5 mM DTT, 30 nM enzyme, RT; mean of three ± SD; 100 % = EtOH; read-out: Residual activity for oxygen reduction, Cytochrome bo3
As shown below, each of these compounds has a reported remaining activity at 250 µM value.
Give just the numeric value; % need not be written.

# value lookup — system purified E. coli cyt bo3 oxidase (Escherichia coli, UniProt P0ABI8), readout remaining activity at 250 µM, item O=C1C(O)=C(Cc2ccc3c(c2)OCO3)C(=O)c2ccccc21 [HNQ‐6] 27.3

# value lookup — system purified E. coli cyt bo3 oxidase (Escherichia coli, UniProt P0ABI8), readout remaining activity at 250 µM, item CCCCCCCCCCCCCC1=C(O)C(=O)c2ccccc2C1=O [HNQ‐1, 2‐Hydroxy‐3‐tridecyl‐1,4‐naphthoquinone] 2.64

# value lookup — system purified E. coli cyt bo3 oxidase (Escherichia coli, UniProt P0ABI8), readout remaining activity at 250 µM, item O=C1C(O)=C(Cc2ccncc2)C(=O)c2ccccc21 [HNQ‐3] 99.5

# value lookup — system purified E. coli cyt bo3 oxidase (Escherichia coli, UniProt P0ABI8), readout remaining activity at 250 µM, item CCCCCCCc1cc(O)c2ccccc2[n+]1[O-] [HQNO, 2‐heptyl‐4‐quinolinol 1‐oxide, reference compound] 4.42

Where do these numbers come from? They come from paper PMC7497249.
